# Tested on: MDA-MB-435 melanoma
# PROCEDURE TEXT: NCI-60 one-dose screen, 48 h
# EXPERIMENTAL SETUP: 10 µM unless noted
Compounds without any hit were thinned out: in the full panel of roughly 83,000, 20% have a hit. Activity calls are given as the source filed them. The calls were made as follows: active = growth percent below 10; inactive = the rest.
Possible outcomes: 1 = active, -1 = inactive

# MOLECULE, CAT
data = [
    ("OCNc1ccc(-n2cnc3cc(-c4ccc(O)cc4)ccc32)cc1C(F)(F)F", 1),
    ("COc1cc(C2CC(c3cc(OC)c(OC)c(OC)c3)=NN2C(C)=O)ccc1OCc1ccc(F)cc1 (centres undefined)", -1),
    ("CC(C)c1sc(NC(=O)c2cc(NC(=O)c3cc(NC(=O)c4cscn4)cn3C)cn2C)nc1C(=O)NCCCN(C)C", 1),
    ("COc1ccc(NC(=O)Cn2c(/C=C/c3cccc([N+](=O)[O-])c3)nc3ccccc3c2=O)cc1", -1),
    ("C=Cn1cc(C(=O)O)c(=O)c2cc(F)c(N3CCN(c4nccc(-c5nccs5)n4)CC3)cc21", 1),
    ("CN(C)c1ccnc(NCCCSC(c2ccccc2)(c2ccccc2)c2ccccc2)c1", -1),
    ("CCCCn1c(O)c(N=Nc2nc(-c3cc4ccccc4oc3=O)cs2)c2cc(Br)ccc21", -1),
    ("Cc1cc(=O)oc2cc(OCCCOc3ccc(/C=C/C(=O)Nc4ccccc4N)cc3)ccc12", -1),
    ("COc1ccc(-c2nc3cc(C)ccc3n2CC(=O)N=Nc2c(O)[nH]c3ccc(Br)cc23)cc1", 1),
    ("COc1ccc2[nH]c(O)c(N=NC(=O)COc3ccc(NC(=O)Nc4ccccc4)cc3)c2c1", -1),
    ("COc1ccc(C2=NN(C(C)=O)C(c3ccc(OCc4ccc(Cl)cc4)c(OC)c3)C2)cc1OC (centres undefined)", -1),
    ("CC(=O)Oc1ccccc1C(=O)[Se]CC(=O)Nc1cccc(C(F)(F)F)c1", 1),
    ("COc1ccc(N2N=C(c3ccc4c(c3)OCO4)CC2c2cccc(NC(=O)CCCNS(=O)(=O)c3ccc(F)cc3)c2)cc1 (centres undefined)", -1),
    ("Cc1cc2nc3c([nH]c2cc1C)c1ccc(=O)cc1n3CCN(C)C", -1),
]
